Ref: ChEMBL document CHEMBL4765266

test-description: Binding affinity to HIV1 NL4-3 capsid protein monomer assessed as dissociation constant by SPR analysis
Parameters: species or system Human immunodeficiency virus 1
metric-name: pKd
Answer as the number alone; pKd is minus log10 of concentration in mol/L.

Worked cases, answers included:
Cc1[nH]c2ccccc2c1CC(=O)N[C@@H](Cc1ccccc1)C(=O)N(C)c1ccccc1 :: 5.62
COc1ccc(N(C)C(=O)[C@H](Cc2ccccc2)NC(=O)Cn2cc(-c3cccc(N)c3)nn2)cc1 :: 4.80
COc1ccc(N(C)C(=O)[C@H](Cc2ccccc2)NC(=O)Cn2cc(-c3ccccc3NC(=O)c3ccccc3F)nn2)cc1 :: 5.10

// below: pKd requested for another compound
For the compound COc1ccc(N(C)C(=O)[C@H](Cc2ccccc2)NC(=O)Cn2cc(-c3ccccc3NC(=O)c3cccc(F)c3)nn2)cc1 , what pKd is on record?
5.17

###

Test system: Human immunodeficiency virus 1
test-description: Antiviral activity against HIV1 NL4-3 infected in human TZM-bl cells assessed as reduction in virus induced cytopathic effect measured after 2 days by luciferase gene expression assay
Format: functional, organism-based
condition-details: Human immunodeficiency virus 1, NL4-3, TZM-bl, 48 h
Recorded EC50 values for a group of compounds are listed next.
Lab book: enter the figure in µM, no units written.

COc1ccc(N(C)C(=O)[C@H](Cc2ccccc2)NC(=O)Cn2cc(-c3cccc(N)c3)nn2)cc1 :: 3.3

For the compound COc1ccc(N(C)C(=O)[C@H](Cc2ccccc2)NC(=O)Cn2cc(-c3ccc(NC(=O)c4ccccc4F)cc3)nn2)cc1 , what EC50 is on record?
11.9

For the compound COc1ccc(N(C)C(=O)[C@H](Cc2ccccc2)NC(=O)Cn2cc(-c3ccccc3NC(=O)c3cccc(F)c3)nn2)cc1 , what EC50 is on record?
3.3

For the compound COc1ccc(N(C)C(=O)[C@H](Cc2ccccc2)NC(=O)Cn2cc(-c3ccc(NC(=O)c4ccccc4)cc3)nn2)cc1 , what EC50 is on record?
12.9

For the compound COc1ccc(N(C)C(=O)[C@H](Cc2ccccc2)NC(=O)Cn2cc(-c3ccccc3NC(=O)c3ccccc3OC)nn2)cc1 , what EC50 is on record?
8.41

For the compound COc1ccc(N(C)C(=O)[C@H](Cc2ccccc2)NC(=O)Cn2cc(-c3cccc(NC(=O)c4ccccc4)c3)nn2)cc1 , what EC50 is on record?
12.7

For the compound COc1ccc(N(C)C(=O)[C@H](Cc2ccccc2)NC(=O)Cn2cc(-c3ccccc3N)nn2)cc1 , what EC50 is on record?
3.92

For the compound COc1ccc(N(C)C(=O)[C@H](Cc2ccccc2)NC(=O)Cn2cc(-c3ccccc3NC(=O)c3ccc(F)cc3)nn2)cc1 , what EC50 is on record?
3.46

For the compound COc1ccc(N(C)C(=O)[C@H](Cc2ccccc2)NC(=O)Cn2cc(-c3ccccc3NC(C)=O)nn2)cc1 , what EC50 is on record?
3.99

For the compound COc1ccc(N(C)C(=O)[C@H](Cc2ccccc2)NC(=O)Cn2cc(-c3cccc(NC(=O)c4ccc(C#N)cc4)c3)nn2)cc1 , what EC50 is on record?
12.9

###

System: Human immunodeficiency virus 1
test-description: Antiviral activity against HIV1 NL4-3 infected in human TZM-bl cells assessed as reduction in virus induced cytopathic effect measured after 2 days by luciferase gene expression assay
Assay type: functional, organism-based
condition-details: Human immunodeficiency virus 1, NL4-3, TZM-bl, 48 h
metric-name: pEC50
Answer as the number alone; pEC50 is minus log10 of concentration in mol/L.

COc1ccc(N(C)C(=O)[C@H](Cc2ccccc2)NC(=O)Cn2cc(-c3cccc(NC(=O)c4cccc(F)c4)c3)nn2)cc1 :: 5.02

For the molecule COc1ccc(N(C)C(=O)[C@H](Cc2ccccc2)NC(=O)Cn2cc(-c3cccc(NC(C)=O)c3)nn2)cc1 , what pEC50 is on record?
4.83

For the molecule COc1ccc(N(C)C(=O)[C@H](Cc2ccccc2)NC(=O)Cn2cc(-c3ccc(NC(=O)c4ccc(-c5ccccc5)cc4)cc3)nn2)cc1 , what pEC50 is on record?
4.91

For the molecule COc1ccc(N(C)C(=O)[C@H](Cc2ccccc2)NC(=O)Cn2cc(-c3ccccc3NC(=O)c3cccc(OC)c3)nn2)cc1 , what pEC50 is on record?
4.89

For the molecule COc1ccc(N(C)C(=O)[C@H](Cc2ccccc2)NC(=O)Cn2cc(-c3ccc(NC(=O)c4ccc(F)cc4)cc3)nn2)cc1 , what pEC50 is on record?
4.89

For the molecule COc1ccc(N(C)C(=O)[C@H](Cc2ccccc2)NC(=O)Cn2cc(-c3cccc(NC(=O)c4ccccc4F)c3)nn2)cc1 , what pEC50 is on record?
4.87

For the molecule COc1ccc(N(C)C(=O)[C@H](Cc2ccccc2)NC(=O)Cn2cc(-c3ccccc3NC(=O)c3ccccc3)nn2)cc1 , what pEC50 is on record?
5.43
